FYI, the data here is from ChEMBL document CHEMBL3351705.

Reported Activity_index values for the following molecules.
Test system: Mus musculus
Assay: Toxicity in mouse S180 cells allografted mouse assessed as spleen index at 1 umol/kg, ip for 7 consecutive days measured 24 hrs after last dose (reference value: 7.25 +/- 1.60)
Assay type: organism-based, CCRF S-180
Conditions: in vivo
Structures can show the parent of a compound that is named as a salt.
Please respond with just the number, no unit label.

Q: Form field - read-out: Activity_index; system: Mus musculus; submitted item: `O=C(N[C@@H](Cc1c[nH]c2ccccc12)C(=O)N[C@@H](Cc1c[nH]c2ccccc12)C(=O)N[C@@H](CO)C(=O)OCc1ccccc1)c1cc2ccc(O)cc2oc1=O`
Result: 8.15

Q: Then what about the molecule `C[C@@H](O)[C@H](NC(=O)[C@H](Cc1c[nH]c2ccccc12)NC(=O)[C@H](Cc1c[nH]c2ccccc12)NC(=O)c1cc2ccc(O)cc2oc1=O)C(=O)OCc1ccccc1` ?
Result: 7.43

// next item, Activity_index requested
Q: # returns recorded Activity_index (system: Mus musculus) for COc1cccc2c1C(=O)c1c(O)c3c(c(O)c1C2=O)C[C@@](O)(C(=O)CO)C[C@@H]3O[C@H]1C[C@H](N)[C@H](O)[C@H](C)O1 [DOXORUBICIN HYDROCHLORIDE]
Result: 5.76
